Each recorded value in this set is attributed to ChEMBL document CHEMBL3259773.

- TARGET: Polyunsaturated fatty acid 5-lipoxygenase (Homo sapiens)
- Sequence (whole entry): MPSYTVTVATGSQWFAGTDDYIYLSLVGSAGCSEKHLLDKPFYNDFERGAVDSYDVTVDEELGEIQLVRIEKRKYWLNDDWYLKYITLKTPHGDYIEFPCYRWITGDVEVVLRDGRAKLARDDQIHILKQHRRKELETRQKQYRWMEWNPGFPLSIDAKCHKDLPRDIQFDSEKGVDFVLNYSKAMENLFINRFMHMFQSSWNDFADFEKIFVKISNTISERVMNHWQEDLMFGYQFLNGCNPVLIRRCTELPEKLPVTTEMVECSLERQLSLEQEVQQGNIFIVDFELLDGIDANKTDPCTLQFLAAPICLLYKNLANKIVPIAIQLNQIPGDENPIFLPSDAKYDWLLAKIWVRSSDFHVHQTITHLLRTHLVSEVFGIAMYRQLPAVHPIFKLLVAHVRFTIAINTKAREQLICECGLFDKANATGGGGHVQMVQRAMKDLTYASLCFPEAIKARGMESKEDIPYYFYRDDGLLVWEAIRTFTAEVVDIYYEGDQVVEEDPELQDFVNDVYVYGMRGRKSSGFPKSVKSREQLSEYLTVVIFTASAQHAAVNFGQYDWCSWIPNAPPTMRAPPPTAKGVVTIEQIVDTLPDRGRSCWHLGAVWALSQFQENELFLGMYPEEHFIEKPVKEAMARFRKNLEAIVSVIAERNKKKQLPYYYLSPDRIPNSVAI
- TEST DESCRIPTION: Inhibition of human recombinant 5-LO assessed as product formation at 3 uM by cell-free assay relative to control; values are per cent of control
READOUT NAME: residual activity (%)

Solved entries:
| COMPOUND | READOUT NAME | VALUE |
| --- | --- | --- |
| O=C1Nc2ccc(Br)cc2/C1=C1/Nc2ccccc2/C1=N\O [INDIRUBIN 2] | residual activity | 62.3 |
| O=C1Nc2c(Br)cccc2/C1=C1/Nc2ccc(/C=N/O)cc2C1=O | residual activity | 80 |
| CO/N=C1/C(=C2/C(=O)Nc3c(Br)cccc32)Nc2ccccc21 | residual activity | 82.9 |
| O=C1Nc2c(cccc2C(F)(F)F)/C1=C1/Nc2ccccc2/C1=N\O | residual activity | 68 |
| O=C1Nc2cc(Br)ccc2/C1=C1/Nc2ccccc2/C1=N\OCCN1CCCC1 | residual activity | 75.1 |

(1) CN1CCN(CCO/N=C2/C(=C3/C(=O)Nc4cc(Br)ccc43)Nc3ccccc32)CC1
(2) O=C1Nc2cc(Br)ccc2/C1=C1/Nc2ccccc2/C1=N\O [6BIO]
For the pair 1 and 2 , which member has the lower residual activity number? Label of pick, please. 2
